Value source: PubChem BioAssay (Tox21)

- System name: Nuclear receptor subfamily 1 group I member 2 (Rattus norvegicus)
- Assay method text: Rat pregnane X receptor (rPXR) activation by small molecules, qHTS assay (AID 1346983); also: % is scaled to controls: 0 for no effect and ±100 for the full control effect; nearly all actives have a fitted effect of over 20% in size
- Condition details: rPXR luciferase reporter cells, One-Glo luminescence, 24 h; stronger effect = higher value
Results filed as inconclusive are left out. Active and inactive are the calls of the source. Calls follow the shape of the dose curve; as a rule, active = well fitted activation curve with a large enough effect in the repeat runs; inconclusive = weak or mixed curves; inactive = no such curve, though single readings can be large or run the other way.
Readout name: max activation

[
  {
    "Compound": "N[C@@H]1C[C@H]1c1ccccc1",
    "Value measured": "-1.36% (inactive)"
  },
  {
    "Compound": "O=C(NC(O)C(Cl)(Cl)Cl)NC(O)C(Cl)(Cl)Cl (centres undefined)",
    "Value measured": "-0.374% (inactive)"
  },
  {
    "Compound": "NC(=O)OCCCc1ccccc1",
    "Value measured": "-3.96% (inactive)"
  }
]

Query (compound): C=CCN1CC[C@]23CCCC[C@H]2[C@H]1Cc1ccc(O)cc13 ; field requested: max activation
-1.31% (inactive)

====

- System name: Cytochrome P450 2C19 (Homo sapiens) (UniProt P33261)
- Sequence (P33261 whole entry, looked up): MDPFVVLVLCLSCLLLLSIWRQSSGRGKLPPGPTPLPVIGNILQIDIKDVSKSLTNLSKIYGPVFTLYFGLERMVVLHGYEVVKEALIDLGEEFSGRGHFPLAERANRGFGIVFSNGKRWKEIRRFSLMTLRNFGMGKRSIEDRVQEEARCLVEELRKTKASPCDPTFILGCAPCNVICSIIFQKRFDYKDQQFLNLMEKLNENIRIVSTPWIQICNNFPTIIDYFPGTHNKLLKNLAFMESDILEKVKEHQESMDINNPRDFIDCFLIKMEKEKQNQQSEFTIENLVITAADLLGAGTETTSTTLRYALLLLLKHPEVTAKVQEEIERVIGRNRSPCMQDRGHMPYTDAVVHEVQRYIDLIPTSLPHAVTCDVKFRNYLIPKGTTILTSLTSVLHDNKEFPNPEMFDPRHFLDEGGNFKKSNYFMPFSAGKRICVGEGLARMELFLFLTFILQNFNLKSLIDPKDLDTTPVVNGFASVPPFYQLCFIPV
- Assay method text: Cytochrome P450 Family 2 Subfamily C Member 19 (CYP2C19) small molecule antagonists: luciferase reporter qHTS assay (AID 1671197); also: nearly all actives have a fitted effect of over 65% in size
- Condition details: P450-Glo CYP2C19 enzyme, luciferin luminescence, 1 h; series mostly up to 115 µM
Records with an inconclusive call do not appear. Activity calls are given as the source filed them. Calls come from the whole dose curve; as a rule, active = well fitted inhibition curve with a large enough effect in the repeat runs; inconclusive = weak or mixed curves; inactive = no such curve, though single readings can be large or run the other way.
Answer with one of the outcomes given here: y = active, n = inactive

# count of solved cases: 3
[
  {
    "Molecule": "ClCC1CO1 (configuration not stated)",
    "Answer label": "y"
  },
  {
    "Molecule": "BrCCc1ccccc1",
    "Answer label": "n"
  },
  {
    "Molecule": "O=C(NC(=O)c1c(F)cccc1F)Nc1cc(Cl)c(F)c(Cl)c1F",
    "Answer label": "y"
  }
]

Please indicate how the test categorized CC(O)CCl (configuration not stated) .
n

Query N[C@@H](Cc1ccc(Oc2cc(I)c(O)c(I)c2)c(I)c1)C(=O)O next
n

Query c1cncc([C@@H]2CCCCN2)c1 next
y

Query O=C(Cl)c1ccccc1 next
y

====

- System name: Androgen receptor (Homo sapiens)
- Assay method text: qHTS assay to identify small molecule antagonists of the androgen receptor (AR) signaling pathway using the MDA cell line in the presence of 0.5 nM R1881 (AID 1259243); also: nearly all actives have a fitted effect of over 50% in size
- Condition details: MDA-kb2 MMTV-luciferase, R1881 0.5 nM, 16 h; series mostly up to 92.4 µM
- Source text: U.S. Tox21 Program National Center for Advancing Translational Sciences [NCATS] NIH Chemical Genomics Center [NCGC] U.S. Environmental Protection Agency [EPA] National Institutes of Environmental Health Sciences [NIEHS] National Toxicology Program [NTP] U.S. Food and Drug Administration [FDA] Tox21 Assay Overview: Androgen receptor (AR) is an important member of the nuclear receptor family. Its signaling plays a critical role in AR-dependent prostate cancer and other androgen related diseases. […]
Records with an inconclusive call do not appear. Active and inactive are the calls of the source. The call rests on the fitted dose curve; in most records, active means well fitted inhibition curve with a large enough effect in the repeat runs; inconclusive means weak or mixed curves; inactive means no such curve, though single readings can be large or run the other way.
Answer with one of the outcomes given here: True (active), False (inactive)

# count of solved cases: 3
[
  {
    "Compound": "CCOP(=S)(OCC)SCCl",
    "Answer label": "False"
  },
  {
    "Compound": "CNC(=O)O/N=C(/CSC)C(C)(C)C",
    "Answer label": "False"
  },
  {
    "Compound": "O=C(Cl)/C=C/C(=O)Cl",
    "Answer label": "False"
  }
]

Please indicate how the test categorized CCCOc1nn(C(=O)NS(=O)(=O)c2ccccc2C(=O)OC)c(=O)n1C .
False

Query CC(Cc1ccccc1)NCCCCl (stereo not given) next
False

Query C[C@H]1CCCC(=O)CCC/C=C/c2cc(O)cc(O)c2C(=O)O1 next
True

Query COC(=O)c1ccc(CBr)cc1 next
False

Query COP(=O)(O)OC next
False

Query CCC1(c2ccccc2)CCC(=O)NC1=O (stereo not given) next
False

Query C[C@H](N)C(=O)c1ccccc1 next
False
